runConditions: 308.15 K; 101.33 kPa; Liquid; Vibrating tube method
± gives the expanded uncertainty stated by the source.
Quick list: mass density per entry.
Answer shape: numeric part, then the unit.

molecule	measuredResult
CCCCCCCC[n+]1ccccc1.[Cl-] [N-octylpyridinium chloride]	1128.78 ± 2.2 kg/m3

Switching to the query record.
mass density lookup needed for CCCCCC[n+]1ccccc1.[Cl-] [1-hexylpyridinium chloride] , thanks.
1146.65 ± 2.3 kg/m3

###

Reported speed of sound values follow for various compounds
runConditions: 318.15 K; 101.33 kPa; Liquid; Sing-around technique in a fixed-path interferometer
Only the number, expressed in m/s, is required.

compound	measure	unitTag	measuredResult
CCCCCC[n+]1ccccc1.[Br-] [1-hexylpyridinium bromide]	speed of sound	m/s	1557.2

// returns reported speed of sound for input CCCCCCCC[n+]1ccccc1.[Br-] [1-octylpyridinium bromide]
1478.3

Now this one: CCCCCCCC[n+]1ccc(C)cc1.[Cl-] [4-methyl-1-octylpyridinium chloride]
1411.7

// next record CCCCCCCC[n+]1ccccc1.[Cl-] [N-octylpyridinium chloride]
1448.6

Repeat for the following compound: CCCCCC[n+]1ccc(C)cc1.[Br-] [1-hexyl-4-methylpyridinium bromide]
1558.7

And what about the compound CCCCCC[n+]1ccccc1.[Cl-] [1-hexylpyridinium chloride] ?
1549.2
